# Lookup of reported TGI keyed by entry
- Test system: SK-MEL-5 melanoma
- assay summary: NCI tumour cell line growth inhibition, 48 h

A selection of reference data follows.
compound: CN1CC2=C(NC(=S)NC2c2ccc(Cl)cc2)/C(=C/c2ccc(Cl)cc2)C1 (stereo not drawn)
TGI: 26.8 µM

compound: O=C(c1ccco1)c1c(C(F)(F)F)nc2cc(C(F)(F)F)ccc2[n+]1[O-]
TGI: > 100 µM

As a next step, examine the compound that follows.
For SK-MEL-5 melanoma, provide TGI of `NC(C(F)(F)F)(C(F)(F)F)P(=O)(c1ccccc1)c1ccccc1` please.
> 100 µM

###

- System: TK-10 renal
- assay summary: NCI tumour cell line growth inhibition, 48 h
Would you mind labelling by TGI? At or over 40 µM is yes (1), under is no (0).

Past entries and their recorded results:
compound: COc1ccc(C2CC(=O)Oc3ccccc3O2)cc1 (stereo not given)
assigned label: yes (1)

compound: Cc1cn(CC2=NCC(C)(C)CN2)c(=O)[nH]c1=O
assigned label: yes (1)

compound: CCOC(=O)c1cc2cc(NC(=O)c3cc4cc([N+](=O)[O-])ccc4n3C)ccc2n1C
assigned label: yes (1)

compound: COC1=CC(C2c3cc4c(cc3[C@@H](Nc3ccc([N+](=O)[O-])cc3)C3COC(=O)[C@H]23)OCO4)=CC(=O)C1=O (stereo not given in full)
assigned label: yes (1)

compound: CC12CCc3ccccc3C1=Nc1ccccc12 (stereo not given)
assigned label: yes (1)

I'd appreciate it if you could say whether `CN(/N=C/c1ccnc2ccccc12)c1ccc([N+](=O)[O-])cc1[N+](=O)[O-]` has TGI at least equal to 40 µM.
yes (1)

I'd appreciate it if you could say whether COc1ccc(C2CCC(Cl)(OC)CC2C=O)cc1 (stereo not given) has TGI at least equal to 40 µM.
yes (1)

I'd appreciate it if you could say whether Cc1ccc2[nH]c(C(=O)NN3C(=O)CSC34CCCC(C)C4)c(-c3ccccc3)c2c1 (stereo not given) has TGI at least equal to 40 µM.
no (0)

I'd appreciate it if you could say whether CC(=O)NCC1(c2ccccc2)CCN(CC2COc3ccccc3O2)CC1 (stereo not given) has TGI at least equal to 40 µM.
yes (1)

I'd appreciate it if you could say whether `CN(C)CCOc1nc2c3cccnc3cc(-c3cccc(Cl)c3)c2c2ncccc12` has TGI at least equal to 40 µM.
no (0)

I'd appreciate it if you could say whether `C=C1CC2(OC1=O)c1ccccc1C=Cc1ccccc12` has TGI at least equal to 40 µM.
no (0)

I'd appreciate it if you could say whether `Cc1ccc(S(=O)(=O)NC(=O)NCC(=O)NCC(=O)O)cc1` has TGI at least equal to 40 µM.
yes (1)

I'd appreciate it if you could say whether `NC(=O)C(=CN1C(=O)CC(=O)NC1=S)C(N)=O` has TGI at least equal to 40 µM.
yes (1)
